Numbers sourced from patent US20040176471A1.

System: N9 cells
measurement_description: NO production (nitrite accumulation, Griess reaction) in LPS/IFN-γ-stimulated microglial cells
Format: cell-based, murine
cond: LPS/IFN-γ; at the highest concentration (bound given in the source)
Reported % of inhibition of NO2− accumulation at the highest concentration, N9 cells by item:
Return type: number; implicit unit %.

Completed entries (count: 4):
compound="COc1ccc(OC)c(C(=O)/C=C/c2ccc(Cl)c(Cl)c2)c1 [Compound 3, 3,4Dichloro-2′,5′-dimethoxychalcone]" system_name="N9 cells" unit_tag=% val=4.3
compound="CCCOc1ccc(O)c(C(=O)/C=C/c2ccc(Cl)c(Cl)c2)c1 [Compound 6]" system_name="N9 cells" unit_tag=% val=26.4
compound="COc1ccc(OC)c(C(=O)/C=C/c2ccc(Br)cc2)c1 [Compound 2, 4-Bromo-2′,5′-dimethoxychalcone]" system_name="N9 cells" unit_tag=% val=−5.6
compound="O=C(/C=C/c1ccc(Cl)c(Cl)c1)c1cc(O)ccc1O [Compound 4, 3,4-Dichloro-2′,5′-dihydroxychalcone]" system_name="N9 cells" unit_tag=% val=−10.3

# evaluate next
Data request: State, in one line, measured % of inhibition of NO2− accumulation at the highest concentration, N9 cells of O=C(/C=C/c1ccsc1)c1cc(O)ccc1O [Compound 7, 2′,5′-Dihydroxy-3-thienylchalcone]
Data returned: 10.6

---

Tested on: RAW 264.7 cells
measurement_description: NO production (nitrite accumulation, Griess reaction) in LPS-stimulated macrophage-like cells
Type: cell-based, mouse
cond: LPS (1 μg/mL), 24 hrs; positive control; read-out: IC50, accumulation of NO2− in culture media, RAW 264.7 cells
assay_endpoint: IC50 (µM)
Numbers only here, please. The scale is µM.

Data request: Consider the compound COC(=O)[C@@H](N)CCCNC(=N)N[N+](=O)[O-] [L-NAME, N^ω-nitro-L-arginine methyl ether, reference compound] . State its measured IC50.
Data returned: 510

---

System: rat peritoneal mast cells
measurement_description: Mast cell degranulation stimulated with compound 48/80 (release of β-glucuronidase and histamine)
Assay type: cell-based
cond: compound 48/80, at the highest concentration (bound given in the source)
Classification field: YES = % of inhibition of Histamine release at the highest concentration at or over 20%; NO = % of inhibition of Histamine release at the highest concentration under 20%.

As a guide, the following entries are already answered.
molecule=CCOc1ccc(OCC)c(C(=O)/C=C/c2ccc(Cl)c(Cl)c2)c1 label_value=NO
molecule=CCCOc1ccc(O)c(C(=O)/C=C/c2ccc(Cl)c(Cl)c2)c1 label_value=YES
molecule="COc1ccc(OC)c(C(=O)/C=C/c2ccc(O)cc2)c1 [Compound 1, 2′,5′-Dimethoxy-4-hydroxychalcone]" label_value=NO

Data request: Dear colleague, could you confirm whether `COc1ccc(OC)c(C(=O)/C=C/c2ccc(Br)cc2)c1` has % of inhibition of Histamine release at the highest concentration at or above 20%?
Data returned: YES

Data request: Does the reported % of inhibition of Histamine release at the highest concentration for `COc1ccc(OC)c(C(=O)/C=C/c2ccc(Cl)c(Cl)c2)c1` fall at or above the 20% mark?
Data returned: YES

---

A collection of compounds and their measured % of inhibition of NO2− accumulation at the highest concentration, RAW 264.7 cells
Test system: RAW 264.7 cells
measurement_description: NO production (nitrite accumulation, Griess reaction) in LPS-stimulated macrophage-like cells
Format: cell-based, mouse
cond: LPS; at the highest concentration (bound given in the source)
Give just the numeric value; % need not be written.

A selection of reference data follows.
compound=CCCOc1ccc(O)c(C(=O)/C=C/c2ccc(Cl)c(Cl)c2)c1 system_name="RAW 264.7 cells" val=7.5
compound="O=C(/C=C/c1ccc(Cl)c(Cl)c1)c1cc(O)ccc1O [Compound 4, 3,4-Dichloro-2′,5′-dihydroxychalcone]" system_name="RAW 264.7 cells" val=−4.9
compound=COc1ccc(OC)c(C(=O)/C=C/c2ccc(Br)cc2)c1 system_name="RAW 264.7 cells" val=8.9
compound="O=C(/C=C/c1ccsc1)c1cc(O)ccc1O [Compound 7, 2′,5′-Dihydroxy-3-thienylchalcone]" system_name="RAW 264.7 cells" val=9.7

Now, please, on to the next compound.
Data request: Identify measured % of inhibition of NO2− accumulation at the highest concentration, RAW 264.7 cells associated with `COc1ccc(OC)c(C(=O)/C=C/c2ccc(Cl)c(Cl)c2)c1`
Data returned: 2.0

---

System: rat neutrophils
measurement_description: Superoxide anion generation in neutrophils stimulated with fMLP/CB or PMA (cytochrome c reduction)
Type: cell-based
cond: Neutrophil; rat neutrophils, PMA (3 nM); read-out: IC50, superoxide anion generation, PMA
pIC50: −log10 of the molar value.
assay_endpoint: pIC50

compound=CCCOc1ccc(O)c(C(=O)/C=C/c2ccc(Cl)c(Cl)c2)c1 val="< 4.52"

Data request: State, in one line, measured pIC50 of COc1ccc(OC)c(C(=O)/C=C/c2ccc(O)cc2)c1 [Compound 1, 2′,5′-Dimethoxy-4-hydroxychalcone]
Data returned: < 4.52

Data request: Give me measured pIC50, please, for this compound: O=C(/C=C/c1ccsc1)c1cc(O)ccc1O [Compound 7, 2′,5′-Dihydroxy-3-thienylchalcone]
Data returned: < 6.00

Data request: Entry `CCOc1ccc(OCC)c(C(=O)/C=C/c2ccc(Cl)c(Cl)c2)c1` needs its pIC50 filled in; supply it.
Data returned: < 4.52

Data request: Identify the reported pIC50 for the following entry. CN1CCN(CCCN2c3ccccc3Sc3ccc(C(F)(F)F)cc32)CC1 [Trifluoperazine, reference compound]
Data returned: 5.01

Data request: Give me measured pIC50, please, for this compound: `COc1ccc(OC)c(C(=O)/C=C/c2ccc(Cl)c(Cl)c2)c1`
Data returned: < 4.52

Data request: Indicate the recorded pIC50 value for this compound: O=C(/C=C/c1ccc(Cl)c(Cl)c1)c1cc(O)ccc1O [Compound 4, 3,4-Dichloro-2′,5′-dihydroxychalcone]
Data returned: < 5.00

Data request: Please give measured pIC50 of the following entry: `COc1ccc(OC)c(C(=O)/C=C/c2ccc(Br)cc2)c1`
Data returned: < 4.52
